Study the reported IC50 values for UniProt O60674 given below; they originate from different publications.

Example entries begin here.
N#Cc1cc(-c2ncnc(Nc3ccc(N4CCOCC4)cc3)n2)ccc1NC(=O)C1CC1	24 nM
CCC(=O)c1cnc(Nc2ccc(C(C)N)nn2)cc1Nc1cccc(-c2ncn(C)n2)c1OC (stereo not drawn)	≥ 500 nM
Cc1cnc2nc1NCCCCCNC(=O)c1ccc(cc1[N+](=O)[O-])-c1cnc(F)c(c1)N2	101 to 1000 nM
N#CCC(C1CCCC1)n1cc(-c2ccnc(Nc3cccc(C(=O)N4CCOCC4)c3)n2)cn1 (racemic)	< 100 nM
C[C@H](O)C(=O)N1CC[C@H](Oc2ccc(-c3ncnc(Nc4ccc(N5CC6(COC6)C5)cc4)n3)cc2C#N)[C@H](F)C1	634 nM
Cc1cccc(OCC(O)CNc2cc[nH]c(=O)c2-c2nc3cc4c(cc3[nH]2)C(=O)N(C2CCN(C)CC2)C4=O)c1 (stereo not drawn)	500 to 5000 nM
CNc1nn([C@]2(CC#N)C[C@@H](C#N)C2)cc1-c1nc(-c2cnn(C)c2)cn2nccc12	6.7 nM
N#CCC1(n2cc(-c3ncnc4[nH]ccc34)cn2)CN(C2CCN(C(=O)c3ccccc3C#N)CC2)C1	10 to 50 nM
CCC(=O)c1cnc(Nc2ccc(OC3CN(C)C3)nn2)cc1Nc1cccc(-c2ncn(C)n2)c1OC	≥ 500 nM
CCC(=O)c1cnc(Nc2cc(C(=O)O)ccn2)cc1Nc1cccc(-c2ncn(C)n2)c1OC	≥ 500 nM

Exercise: Recall the recorded IC50 for CNC(=O)c1n[nH]c2cc(-c3cc(F)c(O)cc3CC(F)(F)F)nc(NCc3cc(Cl)ccc3N(C)S(C)(=O)=O)c12 with UniProt O60674 and state it.
Key: 55 nM

Exercise: Same question for CCOC(=O)[C@@H]1C[C@@H](OC(=O)Cn2cc(Nc3ncc4ccn(C[C@@H](CC)C(C)C)c4n3)cn2)CN1C please.
Key: < 100 nM

Exercise: Same question for CCC(=O)c1cnc(Nc2ccc(CN3CC[C@H](F)C3)cn2)cc1Nc1cccc(-c2ncn(C)n2)c1OC please.
Key: ≥ 500 nM

Exercise: Same question for CC[C@H](Cn1ccc2cnc(Nc3cnn(CC(=O)OC4COC4)c3)nc21)C(C)C please.
Key: < 100 nM

Exercise: Same question for Cn1ccc(C(=O)N2CCC(Oc3ccc(-c4ncnc(Nc5ccc(N6CCN(C7COC7)CC6)cc5)n4)cc3C#N)CC2)cc1=O please.
Key: ≥ 1000 nM

---

Study the reported IC50 values for Tyrosine-protein kinase JAK2 (Homo sapiens, UniProt O60674) given below; they originate from different publications.

Example entries begin here.
CNC(=O)c1n[nH]c2cc(-c3cc(F)c(O)cc3C3CC3)nc(NCc3cccnc3N(C)S(C)(=O)=O)c12	181 nM
N#Cc1cc(-c2ncnc(Nc3ccc(N4CCN(C5COC5)CC4)cc3)n2)ccc1N1CCC2(C1)OCCO2	330 nM

Exercise: Tell me the measured IC50 of COc1cnc(Nc2ccc(N3CCN(CCO)CC3)c(Cl)c2)nc1Nc1cccc(C2(C#N)CC2)c1 , please.
Key: 10 to 1000 nM

---

Study the reported IC50 values for Tyrosine-protein kinase JAK2 (Homo sapiens) given below; they originate from different publications.

Exercise: Tell me the measured IC50 of CN1CCC(N2C(=O)c3cc4nc(-c5c(NC[C@@H](O)COc6cccc(Cl)c6)ccnc5O)[nH]c4cc3C2=O)CC1 , please.
Key: 500 to 5000 nM

Exercise: Same question for N#CCC1(n2ccc(-c3ncnc4[nH]ccc34)c2)CN(C2CCN(C(=O)Nc3ccccc3C#N)CC2)C1 please.
Key: 50 to 100 nM

Exercise: Same question for C[C@H](O)C(=O)N1CC[C@H](Oc2c(F)cc(-c3ncnc(Nc4ccc(N5CCN(C6COC6)CC5)cc4)n3)cc2C#N)[C@H](F)C1 please.
Key: ≥ 1000 nM

Exercise: Same question for CN(C)Cc1ccc(Nc2ncc3ccn(S(=O)(=O)c4cccc5cccnc45)c3n2)cc1 please.
Key: < 20 nM

Exercise: Same question for Cn1cc(-c2cc3nccn3c(-c3cnn(C4(CC#N)CN(S(=O)(=O)CCC(F)(F)F)C4)c3)n2)cn1 please.
Key: 10 to 100 nM

Exercise: Same question for C[C@H]1CN(C2COC2)CCN1c1ccc(Nc2ncnc(-c3ccc(O[C@H]4CCN(C(=O)c5cnc[nH]5)CC4(F)F)c(C#N)c3)n2)cc1 please.
Key: 66 nM

Exercise: Same question for COc1ccc(C(=O)N2CC3(CC(N(C)c4ncnc5[nH]ccc45)C3)C2)cc1 please.
Key: 1000 to 10000 nM

Exercise: Same question for Cn1cc(Nc2ncc(Cl)c(NC3CCN(c4ccc(C#N)cn4)CC3)n2)cn1 please.
Key: 0.5 nM
